Data origin, for the record: paper PMC10786891

Target Or System: T1, EsCas13d, nuclease-dead (Eubacterium siraeum, UniProt B0MS50, R295A;H300A;R849A;H854A)
T1 sequence: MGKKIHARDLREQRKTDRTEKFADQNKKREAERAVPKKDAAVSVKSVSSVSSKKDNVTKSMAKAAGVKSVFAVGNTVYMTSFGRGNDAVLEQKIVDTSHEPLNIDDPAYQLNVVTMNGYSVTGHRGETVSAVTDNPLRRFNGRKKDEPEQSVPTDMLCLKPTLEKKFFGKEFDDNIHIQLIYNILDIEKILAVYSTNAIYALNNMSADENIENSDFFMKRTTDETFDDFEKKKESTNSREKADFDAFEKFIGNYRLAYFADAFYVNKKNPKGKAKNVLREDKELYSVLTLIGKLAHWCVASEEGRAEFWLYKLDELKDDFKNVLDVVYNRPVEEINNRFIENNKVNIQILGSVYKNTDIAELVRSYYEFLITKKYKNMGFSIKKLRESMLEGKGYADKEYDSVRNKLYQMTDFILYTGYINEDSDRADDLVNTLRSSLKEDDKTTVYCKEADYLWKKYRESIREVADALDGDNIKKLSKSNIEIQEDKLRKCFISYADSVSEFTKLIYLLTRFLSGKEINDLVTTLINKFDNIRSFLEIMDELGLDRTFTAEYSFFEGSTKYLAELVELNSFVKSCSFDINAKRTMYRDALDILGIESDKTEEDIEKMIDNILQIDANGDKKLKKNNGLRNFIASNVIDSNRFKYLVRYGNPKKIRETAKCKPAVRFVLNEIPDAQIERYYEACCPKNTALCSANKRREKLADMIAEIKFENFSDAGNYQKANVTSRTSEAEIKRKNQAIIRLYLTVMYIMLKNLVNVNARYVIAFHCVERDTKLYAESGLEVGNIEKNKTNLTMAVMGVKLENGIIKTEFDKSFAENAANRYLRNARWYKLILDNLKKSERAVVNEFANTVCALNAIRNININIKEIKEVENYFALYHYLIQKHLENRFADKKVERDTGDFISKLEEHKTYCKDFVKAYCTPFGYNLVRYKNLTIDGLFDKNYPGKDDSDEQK
Method Description: crRNA (strand 1, pre-loaded); Mg2+; 40 mM Tris-HCl pH 7.5, 150 mM NaCl, 6 mM MgCl2, 1 mM DTT, 0.1% Tween-20, 0.2 mg/ml BSA; 25 C; 10 min per concentration, then washed
Condition Description: tags: His6-TwinStrep-SUMO cleaved; N-terminal SNAP kept (SNAP-Surface 488); label: 3' end held by stalled T7 RNA polymerase
pKd: −log10 of the molar value.
Please note: Y applies when pKd is 8 or greater, and N applies otherwise.

target 1 C4A,A9U (mixed) RNA 1: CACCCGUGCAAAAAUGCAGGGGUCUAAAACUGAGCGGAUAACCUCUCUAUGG RNA 2: GGGAAUGGAUCCACAUCUACGAAUUCGUACCAUAGAGAGGUUUUCCGAUCACCGAGAUCGGAAGAGCACACGU ... Y

Query string: Check this binder for pKd at or above 8: target 1 MT 5'PFS GUU 3'PFS UGU (mixed) RNA 1: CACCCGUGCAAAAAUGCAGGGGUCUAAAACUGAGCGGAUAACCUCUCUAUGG RNA 2: GGGAAUGGAUCCACAUCUACGAAUUCGUUCCAUAGAGAGGUUAUCCGCUCAUGUAGAUCGGAAGAGCACACGU
Result string: N

Query string: Check this binder for pKd at or above 8: target 1 C4U,U10G (mixed) RNA 1: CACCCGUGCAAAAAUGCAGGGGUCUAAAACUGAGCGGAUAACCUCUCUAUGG RNA 2: GGGAAUGGAUCCACAUCUACGAAUUCGUACCAUAGAGAGGUGAUCCGUUCACCGAGAUCGGAAGAGCACACGU
Result string: N

Query string: Check this binder for pKd at or above 8: target 1 MT 5'PFS GCU 3'PFS UUC (mixed) RNA 1: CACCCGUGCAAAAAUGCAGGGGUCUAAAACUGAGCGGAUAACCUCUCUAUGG RNA 2: GGGAAUGGAUCCACAUCUACGAAUUCGCUCCAUAGAGAGGUUAUCCGCUCAUUCAGAUCGGAAGAGCACACGU
Result string: N
